assay: Ratio of drug level in liver against plasma in rat; assay type: ADME, organism-based
readout-label: Kp

INSERT INTO results (molecule, readout_label, measured_number) VALUES
  ('CC(C)(C)NC(=O)N[C@H](C(=O)N1C[C@H]2[C@@H]([C@H]1C(=O)NC(CC1CCC1)C(=O)C(N)=O)C2(C)C)C(C)(C)C (stereo partly specified) [BOCEPREVIR]', 'Kp', 30);

* * *

test: Bioavailability in mouse; format: ADME, organism-based; settings: in vivo
readout-label: bioavailability (%)

INSERT INTO results (compound, readout_label, measured_number) VALUES
  ('CC(C)(C)NC(=O)N[C@H](C(=O)N1C[C@H]2[C@@H]([C@H]1C(=O)NC(CC1CCC1)C(=O)C(N)=O)C2(C)C)C(C)(C)C (stereo partly specified) [BOCEPREVIR]', 'bioavailability', 34);
